Biological target: PDE1A (Homo sapiens)
Construct: full-length human PDE1A (NP_001003683.1); His (N); made in house; host or cells: Sf9 (baculovirus, pFastBac1)
Experiment: Ca2+-calmodulin dependent PDE enzyme assay (SPA), PDE1A
Format: biochemical
Conditions: [3H]cAMP 47 nM; enzyme 0.25 nM; Ca2+/calmodulin buffer pH 7.5; read-out: IC50 (nM) of Example 1, PDE 1A
RECORDED_METRIC: IC50

## Input Can you look up the measured IC50 of O=c1c2nnc(C3(C4CC4)CC3)n2c2c(n1CC1CC1)CCCC2 [Example 1] for me?
## Output 3.41 nM
